Target: T1, mouse programmed cell death protein 1 Fc fusion protein (mPD-1-Fc), mPD-1 C60S (aa 25-167) (Mus musculus, UniProt Q02242, stabilised)
T1 construct: not cleaved; source: Expi293F, purified (Protein A, SEC; dimeric fraction); not shown: Fc (human), C-terminal, kept
Assay: SPR; Carterra LSA; Fab from the ammonium sulfate precipitate of the culture supernatant immobilised on a NiHC200M chip; hPD-1 (1-1024 nM) or mPD-1-Fc (4-1024 nM) as analyte, fourfold dilution series, no regeneration; HBS-EP pH 7.4, 25 °C; medians over the spots of a construct, KD = koff/kon
Details: one partner purified
measured.quantity: Kd

**Q:** # lookup: Kd of toripalimab Fab L.L101E (Fab, V domains shown, as the heavy chain of Sm3; light chain of Sm3 with this change; numbers count from the chain's first residue; source: Brevibacillus, culture supernatant (ammonium sulfate precipitate); not shown: 6xHis, C-terminal, kept; 6xHN, C-terminal, kept) VH: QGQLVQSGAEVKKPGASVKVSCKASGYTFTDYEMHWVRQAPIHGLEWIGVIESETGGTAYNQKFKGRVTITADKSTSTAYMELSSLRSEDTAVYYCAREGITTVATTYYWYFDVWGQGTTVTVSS VL: DVVMTQSPLSLPVTLGQPASISCRSSQSIVHSNGNTYLEWYLQKPGQSPQLLIYKVSNRFSGVPDRFSGSGSGTDFTLKISRVEAEDVGVYYCFQGSHVPETFGQGTKLEIK
**A:** 95.6 nM

Cited source: paper PMC10663500
